Ref: patent US8148371B2

System: plasma esterase
test.context: rat plasma, test compound 10 μM, 37° C., 15 minutes
Quick reference: Residual rate of the listed items.

{"query.smiles": "COC(=O)OCCOc1nc(N)c2nc(O)n(Cc3ccc(C)nc3)c2n1", "Residual rate": "2%"}
{"query.smiles": "Nc1nc(SCC(=O)OCc2ccccc2)nc2c1nc(O)n2Cc1ccccc1", "Residual rate": "0%"}
{"query.smiles": "CCCCOc1nc(N)c2nc(O)n(Cc3ccc(OCC(=O)OC)cc3)c2n1", "Residual rate": "0%"}
{"query.smiles": "Nc1nc(SCC(=O)OCC(F)F)nc2c1nc(O)n2Cc1ccccc1", "Residual rate": "0%"}
{"query.smiles": "C=CCOC(=O)CSc1nc(N)c2nc(O)n(Cc3ccccc3)c2n1", "Residual rate": "0%"}
{"query.smiles": "CCCCOc1nc(N)c2[nH]c(=O)n(Cc3ccc(C(=O)OC)cc3)c2n1", "Residual rate": "13%"}
{"query.smiles": "COC(=O)CSc1nc(N)c2nc(O)n(Cc3ccccc3)c2n1", "Residual rate": "0%"}
